Property: IC50 at 10 min; scope: individual compounds
- Test system: CYP isozymes (IC50s averaged over the isozymes)
- Measurement Protocol: CYP Enzymatic Inhibition Assay in human liver microsomes
Observation Type: IC50 at 10 min (µM)

Compound: CC(=O)N1CC[C@@]2(CN(Cc3ccc(Nc4ncc(F)c(-c5cc(F)c6nc(C)n(C(C)C)c6c5)n4)nc3)CCO2)C1 [Compound A36]
Observation Type: IC50 at 10 min
Experimental Result: 23.4
//
Compound: Cc1nc2c(F)cc(-c3nc(Nc4ccc(CN5CCO[C@@]6(CCN(S(C)(=O)=O)C6)C5)cn4)ncc3F)cc2n1C(C)C [Compound A31]
Observation Type: IC50 at 10 min
Experimental Result: 12.8
//
Compound: COC(=O)N1CC[C@@]2(CN(Cc3ccc(Nc4ncc(F)c(-c5cc(F)c6nc(C)n(C(C)C)c6c5)n4)nc3)CCO2)C1 [Compound A33]
Observation Type: IC50 at 10 min
Experimental Result: 18.7
//
Compound: CNC(=O)C[C@]1(C)CN(Cc2ccc(Nc3ncc(F)c(-c4cc(F)c5nc(C)n(C(C)C)c5c4)n3)nc2)CCO1 [Compound A59]
Observation Type: IC50 at 10 min
Experimental Result: 21.2

Values from patent US12486280B2
